Where these numbers come from: the supplement of paper PMC10567573

B1: FEM1B (parent)
chain: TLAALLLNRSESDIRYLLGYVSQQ

variants of: B1; assay: protein stability index of a GFP-peptide fusion (GPS, HEK-293T) (PSI 1-6); higher = more stable; settings: c terminus: a fixed tail appended;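 note: lentivirally expressed fusions sorted by FACS into six bins by GFP to DsRed ratio, PSI derived from sequencing read proportions per bin multiplied by bin number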
Measured protein stability index, listed per entry for reference.
Just the number, please.

Examples from the recorded data:
E11Q; 1.99
Q24D; 2
L17G; 2.01

`R9K` has a reported protein stability index of 1.96
